# Experimental Target: Furin (108-574-Tev-Flag-His) enzyme (Homo sapiens)
# Construct: Furin (108-574-Tev-Flag-His) enzyme was expressed and purified from CHO cells; TEV cleavage site (C); FLAG (C); His (C); made in house; host or cells: CHO cells
# Assay Method Text: Furin enzyme assay
# Format: biochemical
# Protocol: Reactions were performed in black 384-well polystyrene low volume plates (Greiner). Furin (108-574-Tev-Flag-His) enzyme was expressed and purified from CHO cells. […] Enzyme inhibition is then quantified using an Envision instrument (PerkinElmer). Data were analyzed using AbaseXE 7.3, utilizing a four-parameter curve fit equation. […] Raw counts obtained from the respective plate reader (Perkin Elmer) were captured for data analysis. […] The results were recorded as pXC50 values (−C in the above equation)
Value Kind: furin enzyme pIC50

{"columns": ["Compound", "Experimental Target", "furin enzyme pIC50"],
 "data": [
  ["CC(=O)NCC1CCN(Cc2cc(Oc3ccc(N4CC5CCC(C4)N5CCC(=O)O)nc3)nc(-c3cc(Cl)cc(Cl)c3)c2)CC1", "Furin (108-574-Tev-Flag-His) enzyme (Homo sapiens)", 9.5],
  ["O=C(O)COC1CCN(Cc2cc(Oc3cnc(N4CCNCC4)nc3)nc(-c3cc(Cl)cc(Cl)c3)c2)CC1", "Furin (108-574-Tev-Flag-His) enzyme (Homo sapiens)", 8.5],
  ["CNC(=O)NCC1CCN(Cc2cc(Oc3cnc(N4CCN(CCC(C)O)CC4)nc3)nc(-c3cc(Cl)cc(Cl)c3)c2)CC1 (stereo not shown)", "Furin (108-574-Tev-Flag-His) enzyme (Homo sapiens)", 9.5],
  ["CC(=O)NCC1CCN(Cc2cc(Oc3ccc(N4CCN(CCP(=O)(O)O)CC4)nc3)nc(-c3cc(Cl)cc(Cl)c3)c2)CC1", "Furin (108-574-Tev-Flag-His) enzyme (Homo sapiens)", 9.1],
  ["CCN1CCCN(c2cnc(Oc3cc(CN4CCC(CC(=O)O)CC4)cc(-c4cc(Cl)cc(Cl)c4)n3)cn2)CC1", "Furin (108-574-Tev-Flag-His) enzyme (Homo sapiens)", 8.6],
  ["CC(C)N(c1cnc(N2CCN(C)CC2)nc1)c1cc(CN2CCC(CC(=O)O)CC2)cc(-c2cc(Cl)cc(Cl)c2)n1", "Furin (108-574-Tev-Flag-His) enzyme (Homo sapiens)", 7.9],
  ["CC(=O)NCC1CCN(Cc2cc(Oc3cnc(N4CCN(CCO)CC4)nc3)nc(-c3cc(F)cc(Cl)c3)c2)CC1", "Furin (108-574-Tev-Flag-His) enzyme (Homo sapiens)", 9.2]
]}

* * *

# Experimental Target: Furin (108-574-Tev-Flag-His) enzyme (Homo sapiens, UniProt P09958)
# Construct: Furin (108-574-Tev-Flag-His) enzyme was expressed and purified from CHO cells; TEV cleavage site (C); FLAG (C); His (C); made in house; host or cells: CHO cells
# Sequence (P09958 108-574): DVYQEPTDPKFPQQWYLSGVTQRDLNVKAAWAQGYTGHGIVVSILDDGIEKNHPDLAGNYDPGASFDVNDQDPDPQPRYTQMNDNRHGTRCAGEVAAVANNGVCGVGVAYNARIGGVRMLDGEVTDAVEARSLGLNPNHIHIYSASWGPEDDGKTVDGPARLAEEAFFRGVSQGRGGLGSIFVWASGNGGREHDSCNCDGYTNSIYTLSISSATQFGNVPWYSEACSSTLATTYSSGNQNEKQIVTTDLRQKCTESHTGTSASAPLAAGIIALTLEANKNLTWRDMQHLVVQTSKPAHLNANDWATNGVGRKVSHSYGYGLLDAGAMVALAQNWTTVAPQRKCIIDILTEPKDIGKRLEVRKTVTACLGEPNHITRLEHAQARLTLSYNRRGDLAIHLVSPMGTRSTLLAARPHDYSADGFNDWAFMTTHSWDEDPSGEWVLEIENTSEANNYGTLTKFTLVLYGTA
# Assay Method Text: Furin enzyme assay
# Format: biochemical
Value Kind: furin enzyme pIC50

{"columns": ["Compound", "furin enzyme pIC50"],
 "data": [
  ["CC(=O)NCC1CCN(Cc2cc(Oc3cnc(N4CC5CCC(C4)N5CCC(=O)O)nc3)nc(-c3cc(Cl)cc(Cl)c3)c2)CC1", 10.6],
  ["CC(=O)NCC1CCN(Cc2cc(Oc3ccc(N4CCN(C)CC(F)C4)nc3)nc(-c3cc(Cl)cc(Cl)c3)c2)CC1 (stereo not drawn)", 8.9],
  ["CCN1C[C@@H]2C[C@H]1CN2c1ccc(Oc2cc(CN3CCC(CC(=O)O)CC3)cc(-c3cc(Cl)cc(Cl)c3)n2)nn1", 8.8]
]}
